Assayed target: human mAChR M4 (Homo sapiens, UniProt P08173)
Sequence (P08173 whole entry): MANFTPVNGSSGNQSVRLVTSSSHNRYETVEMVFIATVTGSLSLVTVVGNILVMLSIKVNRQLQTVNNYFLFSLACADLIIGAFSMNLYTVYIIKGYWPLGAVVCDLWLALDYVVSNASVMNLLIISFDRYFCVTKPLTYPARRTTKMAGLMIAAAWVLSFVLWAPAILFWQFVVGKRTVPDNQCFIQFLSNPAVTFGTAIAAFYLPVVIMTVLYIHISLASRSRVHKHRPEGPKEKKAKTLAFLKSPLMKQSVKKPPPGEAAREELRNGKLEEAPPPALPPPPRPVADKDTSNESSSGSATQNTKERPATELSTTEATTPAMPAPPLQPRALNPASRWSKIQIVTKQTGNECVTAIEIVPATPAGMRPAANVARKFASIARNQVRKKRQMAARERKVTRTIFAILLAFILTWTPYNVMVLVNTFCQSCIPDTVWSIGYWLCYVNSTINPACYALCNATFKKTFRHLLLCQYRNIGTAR
Run description: mAChR M4 cell-based functional assay: calcium mobilization (Fluo-4, FDSS), potentiation of EC20 acetylcholine response in hM4-Gqi5 CHO-K1 cells
Details: potentiation of EC20 acetylcholine response, calcium mobilization, human M4
Quantity measured: log10 EC50 (log10 of the value in µM)

[[record]]
smiles_entry = "Cc1ccc(-c2cnc3c(c2)CN(c2nn4c(=O)c(Br)cnc4c(C)c2C)CC3)cn1"
quantity_measured = "log10 EC50"
numeric_result = -1.01

[[record]]
smiles_entry = "Cc1cc(=O)n2nc(N3CCc4ncc(-c5ccccc5OC(F)(F)F)cc4C3)c(C)cc2n1"
quantity_measured = "log10 EC50"
numeric_result = 0.14

[[record]]
smiles_entry = "Cc1cc2nccc(=O)n2nc1N1CCc2ncc(-c3cnn(C)c3C(F)F)cc2C1"
quantity_measured = "log10 EC50"
numeric_result = -0.68

[[record]]
smiles_entry = "Cc1ccc(-c2cnc3c(c2)CN(c2nn4c(=O)ccnc4cc2C)CC3)cn1"
quantity_measured = "log10 EC50"
numeric_result = -1.00

[[record]]
smiles_entry = "Cc1c(N2CCc3ncc(-c4cc(F)cc(F)c4F)cc3C2)nn2c(=O)ccnc2c1C"
quantity_measured = "log10 EC50"
numeric_result = -0.32

[[record]]
smiles_entry = "Cc1c(N2CCc3ncc(-c4cncnc4)cc3C2)nn2c(=O)ccnc2c1C"
quantity_measured = "log10 EC50"
numeric_result = -0.16

[[record]]
smiles_entry = "Cc1cc(=O)n2nc(N3CCc4ncc(-c5ccnnc5)cc4C3)c(C)c(C)c2n1"
quantity_measured = "log10 EC50"
numeric_result = -0.10

[[record]]
smiles_entry = "COc1ccnc(Nc2cnc3c(c2)CN(c2nn4c(=O)ccnc4cc2C)CC3)n1"
quantity_measured = "log10 EC50"
numeric_result = -0.01

[[record]]
smiles_entry = "Cc1c(N2CCc3ncc(-c4ccnn4C4COC4)cc3C2)nn2c(=O)ccnc2c1C"
quantity_measured = "log10 EC50"
numeric_result = 0.51

[[record]]
smiles_entry = "CC(=O)N1CC=C(c2cnc3c(c2)CN(c2nn4c(=O)ccnc4cc2C)CC3)CC1"
quantity_measured = "log10 EC50"
numeric_result = 0.11

[[record]]
smiles_entry = "Cc1cc2ncc(C3CCCC3)c(=O)n2nc1N1CCc2ncc(C(F)(F)F)cc2C1"
quantity_measured = "log10 EC50"
numeric_result = -0.44

